Tested on: Candida albicans
EXPERIMENT_NOTES: microbe, parasite or virus in culture
Type: functional
STATED_CONDITIONS: 0304103, time 48 hrs
Description: Synergistic antifungal activity against azole-resistant Candida albicans 0304103 assessed as fungal growth inhibition measured after 48 hrs in presence of FLC by CLSI based micro-dilution broth method
PROPERTY_MEASURED: MIC80

Give its MIC80 value. Item: COc1cc2c(cc1-c1c(C)noc1C)[nH]c1nc(C)nc(NCCCCCCCC(=O)NO)c12
4 µg/mL

Give its MIC80 value. Item: COc1cc2c(cc1-c1c(C)noc1C)[nH]c1nc(C)nc(NCCCCCC(=O)Nc3ccc(/C=C/C(=O)NO)cc3)c12
1 µg/mL

Give its MIC80 value. Item: COc1cc2c(cc1-c1c(C)noc1C)[nH]c1ncnc(NCCCCCCCC(=O)NO)c12
2 µg/mL

Give its MIC80 value. Item: COc1cc2c(cc1-c1c(C)noc1C)[nH]c1nc(C)nc(Nc3ccc(/C=C/C(=O)NO)cc3)c12
0.5 µg/mL

Give its MIC80 value. Item: COc1cc2c(cc1-c1c(C)noc1C)[nH]c1ncnc(Nc3ccc(C(=O)NO)cc3)c12
8 µg/mL

Give its MIC80 value. Item: COc1cc2c(cc1-c1c(C)noc1C)[nH]c1ncnc(NCCCCCC(=O)NO)c12
0.5 µg/mL

Give its MIC80 value. Item: COc1cc2c(cc1-c1c(C)noc1C)[nH]c1nc(C)nc(Nc3cccc(C(=O)NO)c3)c12
> 64 µg/mL

Give its MIC80 value. Item: COc1cc2c(cc1-c1c(C)noc1C)[nH]c1nc(C)nc(NCCCCCC(=O)NO)c12
2 µg/mL

Give its MIC80 value. Item: COc1cc2c(cc1-c1c(C)noc1C)[nH]c1nc(C)nc(NCc3ccc(C(=O)NO)cc3)c12
2 µg/mL

* * *

Test system: Candida albicans
EXPERIMENT_NOTES: microbe, parasite or virus in culture
Assay type: functional
STATED_CONDITIONS: 0304103, time 48 hrs
PROPERTY_MEASURED: MIC80 (µg/mL)
Enter your answer as a number in µg/mL; do not include the unit.

API: value(readout= MIC80, system= Candida albicans, query= COc1cc2c(cc1-c1c(C)noc1C)[nH]c1ncnc(NCCCCCCC(=O)NO)c12 )
0.5

API: value(readout= MIC80, system= Candida albicans, query= COc1cc2c(cc1-c1c(C)noc1C)[nH]c1ncnc(NCCCCCC(=O)Nc3ccc(/C=C/C(=O)NO)cc3)c12 )
1

API: value(readout= MIC80, system= Candida albicans, query= COc1cc2c(cc1-c1c(C)noc1C)[nH]c1ncnc(Nc3ccc(/C=C/C(=O)NO)cc3)c12 )
8

API: value(readout= MIC80, system= Candida albicans, query= COc1cc2c(cc1-c1c(C)noc1C)[nH]c1nc(C)nc(NCCCCCCC(=O)NO)c12 )
8

API: value(readout= MIC80, system= Candida albicans, query= COc1cc2c(cc1-c1c(C)noc1C)[nH]c1nc(C)nc(Nc3ccc(C(=O)NO)cc3)c12 )
0.5

* * *

Test system: HL-60
EXPERIMENT_NOTES: Antiproliferative activity against human HL-60 cells assessed as cell growth inhibition incubated for 24 hrs by CCK-8 assay
Format: functional, cell-based
STATED_CONDITIONS: HL-60, 24 h
Please provide measured IC50 for the entries that follow.
Enter your answer as a number in µM; do not include the unit.

Give its IC50 value. Item: COc1cc2c(cc1-c1c(C)noc1C)[nH]c1nc(C)nc(NCCCCCC(=O)Nc3ccc(/C=C/C(=O)NO)cc3)c12
3.1

Give its IC50 value. Item: COc1cc2c(cc1-c1c(C)noc1C)[nH]c1ncnc(NCCCCCC(=O)Nc3ccc(/C=C/C(=O)NO)cc3)c12
3.8
